# System under test: human ENPP1 (Homo sapiens)
# Sequence (P22413 whole entry): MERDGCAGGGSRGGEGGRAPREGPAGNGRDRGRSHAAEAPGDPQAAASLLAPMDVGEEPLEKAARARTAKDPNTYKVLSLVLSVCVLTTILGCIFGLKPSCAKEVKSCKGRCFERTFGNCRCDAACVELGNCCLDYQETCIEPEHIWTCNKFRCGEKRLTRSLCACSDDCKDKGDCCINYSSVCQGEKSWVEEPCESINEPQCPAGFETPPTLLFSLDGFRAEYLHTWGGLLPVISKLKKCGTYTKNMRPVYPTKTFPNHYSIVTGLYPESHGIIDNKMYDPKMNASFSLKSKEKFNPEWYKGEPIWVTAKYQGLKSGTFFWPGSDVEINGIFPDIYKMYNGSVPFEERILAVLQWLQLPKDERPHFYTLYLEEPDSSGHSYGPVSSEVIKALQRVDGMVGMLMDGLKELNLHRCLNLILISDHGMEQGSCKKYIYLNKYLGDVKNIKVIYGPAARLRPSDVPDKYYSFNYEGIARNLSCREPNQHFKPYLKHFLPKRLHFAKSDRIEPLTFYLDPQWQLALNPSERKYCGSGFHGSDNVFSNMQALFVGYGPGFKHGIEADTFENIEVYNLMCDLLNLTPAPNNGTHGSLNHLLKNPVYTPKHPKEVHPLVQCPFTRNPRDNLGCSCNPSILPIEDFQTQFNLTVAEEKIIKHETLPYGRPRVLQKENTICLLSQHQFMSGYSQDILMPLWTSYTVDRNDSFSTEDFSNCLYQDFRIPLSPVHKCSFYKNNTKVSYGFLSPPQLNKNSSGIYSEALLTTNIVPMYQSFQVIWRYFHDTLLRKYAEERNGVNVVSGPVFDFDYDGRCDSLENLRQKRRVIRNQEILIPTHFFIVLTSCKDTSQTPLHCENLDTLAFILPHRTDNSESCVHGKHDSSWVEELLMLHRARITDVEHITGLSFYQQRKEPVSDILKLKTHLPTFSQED
Result type: IC50 (µM)

Molecule	Result type	Limit sign	Number
NC1CC2NC3CCCCC3NC2CC1N (stereo not shown) [Inhibitor E-37]	IC50	=	44.6
c1cc2c(cc1C(N1CCNCC1)N1CCNCC1)OCO2 [Inhibitor E-12]	IC50	=	41.1
CC(OCCCCOC(C)n1cnc2c(=O)nc[nH]c21)n1cnc2c(=O)nc[nH]c21 (stereo not shown) [Inhibitor C-13]	IC50	>	241
O=C(Nc1n[nH]c(NC(=O)c2ccccc2)n1)c1ccccc1 [Inhibitor E-27]	IC50	=	16.3
NNc1nc(N2CCCCC2)c2[nH]cnc2n1 [Inhibitor C-76]	IC50	>	429
Cc1c2cc[n+](C)cc2c(COC2OC(CO)C(O)C2O)c2c3ccccc3n(C)c12 (stereo not shown) [Inhibitor C-29]	IC50	=	19.4
O=C(C[N+]12CN3CN(CN(C3)C1)C2)c1ccc2ccccc2c1 [Inhibitor C-5]	IC50	>	257

---

Reported IC50 is given for each of the following compounds.
# System under test: M.tb CdnP (Mycobacterium tuberculosis)
# Sequence (P71615 whole entry, looked up): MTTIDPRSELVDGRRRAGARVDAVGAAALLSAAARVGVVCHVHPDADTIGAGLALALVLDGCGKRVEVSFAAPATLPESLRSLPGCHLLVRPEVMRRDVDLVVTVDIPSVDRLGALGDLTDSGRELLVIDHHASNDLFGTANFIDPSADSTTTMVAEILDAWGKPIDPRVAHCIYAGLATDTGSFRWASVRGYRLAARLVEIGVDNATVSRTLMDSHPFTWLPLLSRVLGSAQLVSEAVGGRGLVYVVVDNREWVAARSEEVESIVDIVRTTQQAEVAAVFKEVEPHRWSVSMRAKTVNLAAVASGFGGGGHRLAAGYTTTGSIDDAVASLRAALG
# Assay summary: biochemical
# Condition info: read-out: IC50 CdnP
Result type: IC50 (µM)

Smiles entry	Number
O=C(C[N+]12CN3CN(CN(C3)C1)C2)c1ccc2ccccc2c1	28.8
NNc1nc(N2CCCCC2)c2[nH]cnc2n1	42.9
